- Experimental Target: Adrenergic receptor beta (Cavia porcellus)
- Assay Procedure: Beta adrenergic receptor blocking activity measured by the inotropic effect was determined 1 hr after pretreament of the right atria in guinea pig
Outcome Measure: pA2
// keep it numeric: no unit symbol after the value

Example entries begin here.
Compound: C=C(c1ccccc1OCC(O)CNC(C)C)n1cnc(C)c1 (configuration not stated)
pA2: 7.16
--
Compound: C=C(c1ccccc1OCC(O)CNC(C)C)n1ccc(=O)cc1 (configuration not stated)
pA2: 6.19
--
Compound: C=C(c1c(C)c(C)cc(Cl)c1OCC(O)CNC(C)C)n1ccnc1 (configuration not stated)
pA2: 5.96
--
Compound: C=C(c1ccc(Cl)cc1OCC(O)CNC(C)C)n1ccnc1 (configuration not stated)
pA2: 5.95
--
Compound: C=C(c1ccccc1OCC(O)CNC(C)C)n1cnc2ccccc21 (configuration not stated)
pA2: 6.46
--
Compound: C=C(c1cc(Cl)ccc1OCC(O)CNC(C)C)n1ccnc1 (configuration not stated)
pA2: 6.41
--
Compound: C=C(c1ccc(Cl)c(Cl)c1OCC(O)CNC(C)C)n1ccnc1 (configuration not stated)
pA2: 4.9
--
Compound: C=C(c1ccccc1OCC(O)CNC(C)C)n1cncn1 (configuration not stated)
pA2: 6.33

// pA2 value for C=C(c1c(C)c(C)cc(Cl)c1OCC(O)CNC(C)(C)C)n1ccnc1 (configuration not stated) : 6.21

// pA2 value for C=C(c1cc(Cl)cc(Cl)c1OCC(O)CNC(C)C)n1ccnc1 (configuration not stated) : 6.64

// pA2 value for C=C(c1c(Cl)ccc(Cl)c1OCC(O)CNC(C)(C)C)n1ccnc1 (configuration not stated) : 5.41

// pA2 value for C=C(c1c(C)ccc(C)c1OCC(O)CNC(C)(C)C)n1ccnc1 (configuration not stated) : 6.47

// pA2 value for C=C(c1ccccc1OCC(O)CNC(C)C)n1ccnc1 (configuration not stated) : 6.89

// pA2 value for CC(C)NCC(O)COc1ccccc1Cn1ccnc1 (configuration not stated) : 6.66

// pA2 value for C=C(c1c(C)ccc(C)c1OCC(O)CNC(C)C)n1ccnc1 (configuration not stated) : 6.43

// pA2 value for `C=C(c1c(Cl)ccc(Cl)c1OC[C@H](O)CNC(C)C)n1ccnc1.Cl` : 5.19

// pA2 value for C=C(c1c(C)ccc(Cl)c1OCC(O)CNC(C)(C)C)n1ccnc1 (configuration not stated) : 5.77

// pA2 value for C=C(c1c(C)ccc(Cl)c1OCC(O)CNC(C)C)n1ccnc1 (configuration not stated) : 5.55

// pA2 value for CC(C)=C(c1cc(Cl)ccc1OCC(O)CNC(C)C)n1ccnc1 (configuration not stated) : 5.19

// pA2 value for C=C(c1ccccc1OCC(O)CNC(C)(C)C)n1ccnc1C (configuration not stated) : 6.97

// pA2 value for C/C=C(\c1ccccc1OCC(O)CNC(C)(C)C)n1ccnc1 (configuration not stated) : 7.3

// pA2 value for C=C(c1c(Cl)ccc(Cl)c1OCC(O)CNCC(C)C)n1ccnc1 (configuration not stated) : 5.81

---

Consider the following molecules and their measured pA2 readings.
- Experimental Target: Adrenergic receptor beta (Cavia porcellus)
- Assay Procedure: Beta adrenergic receptor blocking activity measured by the chronotropic effect was determined 1 hr after pretreatment of the right atria in guinea pig
// keep it numeric: no unit symbol after the value

Example entries begin here.
Molecule: C=C(c1c(C)c(C)cc(Cl)c1OCC(O)CNC(C)C)n1ccnc1 (stereo unspecified)
Reported: 5.04
--
Molecule: C=C(c1c(C)c(C)cc(Cl)c1OCC(O)CNC(C)(C)C)n1ccnc1 (stereo unspecified)
Reported: 6.18
--
Molecule: C=C(c1ccc(Cl)cc1OCC(O)CNC)n1ccnc1 (stereo unspecified)
Reported: 6.19

// pA2 value for C=C(c1ccccc1OCC(O)CNC(C)C)n1cnc2ccccc21 (stereo unspecified) : 6.67

// pA2 value for C/C=C(\c1ccccc1OCC(O)CNC(C)C)n1ccnc1 (stereo unspecified) : 6.52

// pA2 value for C/C=C(\c1ccccc1OCC(O)CNC(C)(C)C)n1ccnc1 (stereo unspecified) : 7.19

---

- Experimental Target: Adrenergic receptor beta (Cavia porcellus)
- Assay Procedure: Beta adrenergic receptor blocking activity measured by the inotropic effect was determined 1 hr after pretreament of the right atria in guinea pig
Consider the following molecules and their measured pA2 readings.
// keep it numeric: no unit symbol after the value

// pA2 value for C=C(c1cccc(OC)c1OCC(O)CNC(C)C)n1cnc2ccccc21 (stereo unspecified) : 6.41

---

- Experimental Target: Adrenergic receptor beta (Cavia porcellus)
- Assay Procedure: Beta adrenergic receptor blocking activity measured by the inotropic effect was determined 1 hr after pretreament of the right atria in guinea pig
Label scheme for pA2: lower than 7 is 0 (no), 7 and above is 1 (yes).

Compound: C=C(c1ccccc1OCC(O)CNC(C)(C)C)n1ccnc1 (configuration not stated)
Assigned Label: 1 (yes)

Entry C=C(c1cc(C)cc(C)c1OCC(O)CNC(C)(C)C)n1ccnc1 (configuration not stated) : is its pA2 no less than 7?
0 (no)

Entry CC(C)NCC(O)COc1ccccc1Cn1cccn1 (configuration not stated) : is its pA2 no less than 7?
1 (yes)

Entry C=C(c1cc(Cl)cc(C)c1OCC(O)CNC(C)C)n1ccnc1 (configuration not stated) : is its pA2 no less than 7?
0 (no)

Entry C=C(c1ccccc1OCC(O)CNC(C)C)n1c(C)cnc1CC (configuration not stated) : is its pA2 no less than 7?
0 (no)

Entry C=C(c1c(Cl)ccc(Cl)c1OCC(O)CNC(C)C)n1ccnc1 (configuration not stated) : is its pA2 no less than 7?
0 (no)

Entry C=C(c1cccc(C)c1OCC(O)CNC(C)(C)C)n1ccnc1 (configuration not stated) : is its pA2 no less than 7?
0 (no)

Entry C=C(c1cc(Cl)cc(C)c1OCC(O)CNC(C)(C)C)n1ccnc1 (configuration not stated) : is its pA2 no less than 7?
0 (no)

---

- Experimental Target: Adrenergic receptor beta (Cavia porcellus)
- Assay Procedure: Beta adrenergic receptor blocking activity measured by the chronotropic effect was determined 1 hr after pretreatment of the right atria in guinea pig
Label scheme for pA2: lower than 6 is no (0), 6 and above is yes (1).

Look over these answered cases.
Molecule: C=C(c1ccccc1OCC(O)CNC(C)C)n1ccnc1 (stereo unspecified)
Assigned Label: yes (1)

Molecule: C=C(c1ccccc1OCC(O)CNC(C)C)n1cccn1 (stereo unspecified)
Assigned Label: yes (1)

Molecule: C=C(c1c(Cl)ccc(Cl)c1OC[C@H](O)CNC(C)C)n1ccnc1.Cl
Assigned Label: no (0)

Entry C=C(c1c(Cl)ccc(Cl)c1OCC(O)CNC(C)(C)C)n1ccnc1 (stereo unspecified) : is its pA2 no less than 6?
no (0)

---

- Experimental Target: Adrenergic receptor beta (Cavia porcellus)
- Assay Procedure: Beta adrenergic receptor blocking activity measured by the chronotropic effect was determined 1 hr after pretreatment of the right atria in guinea pig
Outcome Measure: pA2

Example entries begin here.
Compound: C=C(c1ccc(Cl)cc1OCC(O)CNC(C)C)n1ccnc1 (centres undefined)
Experimental Target: Adrenergic receptor beta (Cavia porcellus)
Outcome Measure: pA2
Reported: 5.86
//
Compound: C=C(c1cc(Cl)cc(C)c1OCC(O)CNC(C)C)n1ccnc1 (centres undefined)
Experimental Target: Adrenergic receptor beta (Cavia porcellus)
Outcome Measure: pA2
Reported: 5.22
//
Compound: C=C(c1c(Cl)cc(Cl)cc1OCC(O)CNC(C)C)n1ccnc1 (centres undefined)
Experimental Target: Adrenergic receptor beta (Cavia porcellus)
Outcome Measure: pA2
Reported: 6.44
//
Compound: CC(C)NCC(O)COc1ccccc1Cn1ccnc1 (centres undefined)
Experimental Target: Adrenergic receptor beta (Cavia porcellus)
Outcome Measure: pA2
Reported: 6.69
//
Compound: C=C(c1cc(Cl)cc(Cl)c1OCC(O)CNC(C)(C)C)n1ccnc1 (centres undefined)
Experimental Target: Adrenergic receptor beta (Cavia porcellus)
Outcome Measure: pA2
Reported: 6.3
//
Compound: C=C(c1cc(Cl)c(Cl)cc1OCC(O)CNC(C)C)n1ccnc1 (centres undefined)
Experimental Target: Adrenergic receptor beta (Cavia porcellus)
Outcome Measure: pA2
Reported: 6.64

// pA2 value for C=C(c1cc(C)cc(C)c1OCC(O)CNC(C)(C)C)n1ccnc1 (centres undefined) : 5.55

// pA2 value for C=C(c1ccccc1OCC(O)CNC(C)C)n1ccc(=O)cc1 (centres undefined) : 6.2

// pA2 value for C=C(c1ccccc1OCC(O)CNC(C)(C)C)n1cnc2ccccc21 (centres undefined) : 7.29

// pA2 value for C=C(c1cccc(OC)c1OCC(O)CNC(C)C)n1cnc2ccccc21 (centres undefined) : 6.26

// pA2 value for C=C(c1c(C)ccc(Cl)c1OCC(O)CNC(C)C)n1ccnc1 (centres undefined) : 5.67

// pA2 value for C=C(c1ccccc1OCC(O)CN1CCCC1)n1ccnc1 (centres undefined) : 6.13

// pA2 value for C=C(c1ccccc1OCC(O)CNC(C)C)n1cncn1 (centres undefined) : 6.12

// pA2 value for C=C(c1ccc(Cl)c(Cl)c1OCC(O)CNC(C)C)n1ccnc1 (centres undefined) : 4.52

// pA2 value for C=C(c1ccccc1OCC(O)CNC(C)C)n1ccnc1C (centres undefined) : 6.24

// pA2 value for C=C(c1ccccc1OCC(O)CN(C)C)n1ccnc1 (centres undefined) : 5.41

// pA2 value for C=C(c1ccccc1OCC(O)CNC(C)C)n1cnc(C)c1 (centres undefined) : 7.19

// pA2 value for C=C(c1c(Cl)ccc(Cl)c1OCC(O)CNCC(C)C)n1ccnc1 (centres undefined) : 4.89

// pA2 value for C=C(c1cccc(OC)c1OCC(O)CNC(C)(C)C)n1cnc2ccccc21 (centres undefined) : 7.03

// pA2 value for CC(C)NCC(O)COc1ccccc1Cn1cccn1 (centres undefined) : 7.42
